- system name: human ether-à-go-go-related gene (hERG) potassium channel (human, UniProt Q12809);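 also: peak tail current of the secondary pulse compared with the same well before compound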
- Sequence (Q12809 whole entry, looked up): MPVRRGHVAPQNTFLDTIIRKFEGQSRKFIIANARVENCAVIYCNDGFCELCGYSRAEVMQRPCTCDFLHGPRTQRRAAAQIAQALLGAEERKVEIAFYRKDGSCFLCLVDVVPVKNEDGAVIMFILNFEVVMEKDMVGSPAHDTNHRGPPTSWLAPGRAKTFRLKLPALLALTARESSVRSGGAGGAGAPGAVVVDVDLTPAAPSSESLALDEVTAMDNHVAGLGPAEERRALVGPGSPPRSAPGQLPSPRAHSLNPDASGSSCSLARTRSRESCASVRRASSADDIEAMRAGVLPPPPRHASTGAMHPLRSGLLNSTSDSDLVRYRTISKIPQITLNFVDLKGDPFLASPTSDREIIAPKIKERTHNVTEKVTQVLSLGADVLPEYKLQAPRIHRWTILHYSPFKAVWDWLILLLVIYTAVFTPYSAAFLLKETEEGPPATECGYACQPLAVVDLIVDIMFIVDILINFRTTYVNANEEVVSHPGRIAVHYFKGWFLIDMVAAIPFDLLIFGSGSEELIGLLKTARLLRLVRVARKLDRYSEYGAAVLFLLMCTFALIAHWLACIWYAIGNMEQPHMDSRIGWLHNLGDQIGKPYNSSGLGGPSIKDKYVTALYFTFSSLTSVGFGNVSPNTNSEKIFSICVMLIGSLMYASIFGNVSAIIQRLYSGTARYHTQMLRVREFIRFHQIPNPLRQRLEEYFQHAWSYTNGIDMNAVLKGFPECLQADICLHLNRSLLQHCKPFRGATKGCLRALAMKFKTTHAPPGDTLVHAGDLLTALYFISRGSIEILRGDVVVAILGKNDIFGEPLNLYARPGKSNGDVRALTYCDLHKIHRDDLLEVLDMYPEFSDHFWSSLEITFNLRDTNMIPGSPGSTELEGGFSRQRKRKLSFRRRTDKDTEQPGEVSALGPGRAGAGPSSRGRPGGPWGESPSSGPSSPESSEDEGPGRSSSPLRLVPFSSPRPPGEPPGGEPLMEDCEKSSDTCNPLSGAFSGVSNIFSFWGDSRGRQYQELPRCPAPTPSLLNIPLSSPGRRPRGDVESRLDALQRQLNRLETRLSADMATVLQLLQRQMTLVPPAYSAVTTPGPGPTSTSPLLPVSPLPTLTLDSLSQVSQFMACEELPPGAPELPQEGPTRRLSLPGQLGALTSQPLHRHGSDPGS
- test summary: primary screen, population patch clamp on CHO cells stably expressing hERG; higher = less effect of the substance
Out of some 310,000 compounds screened, about 14,000 (4.5%) showed an effect of 50% or more. The effect is printed as a negative number. What follows is part of a selection rich in strong results, with near analogues and random picks from the rest.
Record form. Attribute: hERG current change (%, negative = inhibition) at 10uM. Fill in for each entry.
The response must be a number in % with no trailing unit.

Q) What does the data say about its hERG current change (%, negative = inhibition) at 10uM? Entry: COc1cccc(CN2CCCC(N3CCc4ccccc4C3)C2)c1O (centres unmarked)
A) -17.7

Q) Which hERG current change (%, negative = inhibition) at 10uM value belongs to CCN(CC(=O)NCc1cccs1)C(=O)c1ccccc1F ?
A) 9.12

Q) Record request: hERG current change (%, negative = inhibition) at 10uM value, item CCOc1cccc(CN2CCCC(N3CCc4ccccc4C3)C2)c1O (centres unmarked)
A) -52.9

Q) Dear colleague, I am looking for the recorded hERG current change (%, negative = inhibition) at 10uM of the following compound: O=c1[nH]c(=S)n(-c2ccccc2)c(O)c1/C=N/N1CCOCC1
A) -2.11

Q) # hERG current change (%, negative = inhibition) at 10uM lookup, item O=C(O)c1ccc(NC(=S)NC(=O)C(c2ccccc2)c2ccccc2)cc1
A) -6.52

Q) Reported hERG current change (%, negative = inhibition) at 10uM for CCOc1cc(CN2CCCC(N3CCc4ccccc4C3)C2)ccc1O (centres unmarked) : what is it?
A) -21.4

Q) Param item = Cc1ccc(S(=O)(=O)N(CC(=O)O)Cc2ccccc2F)cc1 ; retrieve measured hERG current change (%, negative = inhibition) at 10uM.
A) 3.18

Q) If you can, please state the reported hERG current change (%, negative = inhibition) at 10uM value of COc1c(O)c(=O)n2c3ccccc3c3ccnc1c32 .
A) 7.51

Q) Requested field: hERG current change (%, negative = inhibition) at 10uM. Item: CN1CCN(CCC(=O)N/N=C/c2cc([N+](=O)[O-])ccc2OC(F)F)CC1
A) 1.78

Q) Form field: reported hERG current change (%, negative = inhibition) at 10uM of COc1ccc(S(=O)(=O)N2CCCOC2CNC(=O)C(=O)NCCc2ccco2)cc1 (centres unmarked)
A) 4.42

Q) If you can, please state the reported hERG current change (%, negative = inhibition) at 10uM value of Cc1ccc(S(=O)(=O)N(CC(=O)NCc2ccncc2)Cc2ccccc2F)cc1 .
A) -78.6

Q) Fill blank: measured hERG current change (%, negative = inhibition) at 10uM of the compound CCOc1ccc(C(=O)NC2CCCCCCC2)cc1 is ____.
A) 4.13

Q) Item COc1ccc(CN2CCCC(N3CCc4ccccc4C3)C2)c(O)c1 (centres unmarked) has what recorded hERG current change (%, negative = inhibition) at 10uM?
A) -60.1

Q) Endpoint output: hERG current change (%, negative = inhibition) at 10uM of CN(C)c1cccc(C(=O)Nc2ccc(N3CCOCC3)cc2)c1 . Value?
A) 2.06

Q) Would you mind telling me what hERG current change (%, negative = inhibition) at 10uM value was observed for COc1cccc(CC(=O)OC(C)C(=O)NCc2ccc3c(c2)OCO3)c1 (centres unmarked) ?
A) -3.97

Q) Endpoint output: hERG current change (%, negative = inhibition) at 10uM of NC(=O)CC1Nc2cccc3cccc(c23)NC1=O (centres unmarked) . Value?
A) 8.93

Q) Any idea what hERG current change (%, negative = inhibition) at 10uM was measured for CC(=O)c1cccc(NC(=O)C2CCCN(S(C)(=O)=O)C2)c1 (centres unmarked) ?
A) 8.02

Q) Which hERG current change (%, negative = inhibition) at 10uM is reported for this compound? CCC1(c2ccccc2)NC(=S)N(c2ccc(C)cc2)N1 (centres unmarked)
A) 22

Q) Looking for the measured hERG current change (%, negative = inhibition) at 10uM of CC1(c2nnc(-c3ccc(Cl)cc3)o2)CC(c2cccc(Cl)c2)=NO1 (centres unmarked) , can you help?
A) 13.7

Q) What value of hERG current change (%, negative = inhibition) at 10uM has been reported for the following compound? COc1ccc(CNC(=O)[C@H](C)NC(=O)C2CCN(C(=O)[C@@H](N)CCSC)CC2)cc1
A) 5.47

Q) Requested field: hERG current change (%, negative = inhibition) at 10uM. Item: Cc1cccc(C)c1NC(=O)CN(C)C(=O)c1ccc(-c2cccc(C(F)(F)F)c2)o1
A) -12.5

Q) Item under review: O=C(/C=C\c1ccccc1OC(=O)c1ccccc1F)c1cc2ccccc2o1 . Reported hERG current change (%, negative = inhibition) at 10uM?
A) -3.12

Q) Which hERG current change (%, negative = inhibition) at 10uM value is on record for COc1cc(C(=S)N2CCOCC2)ccc1OC(=O)c1cc(OC)c(OC)c(OC)c1 ?
A) 21.8

Q) State the recorded hERG current change (%, negative = inhibition) at 10uM for this entry: O=C(N/N=C/c1cc([N+](=O)[O-])ccc1O)C1C2CCCCC21 (centres unmarked)
A) 3.28

Q) Which hERG current change (%, negative = inhibition) at 10uM value is on record for CCN(CC(=O)NCc1cccs1)C(=O)COc1cccc(C(F)(F)F)c1 ?
A) -38.2

Q) Requested field: hERG current change (%, negative = inhibition) at 10uM. Item: COc1ccccc1CNC(=O)Cn1nnc(-c2ccncc2)n1
A) 1.05

Q) Name the recorded hERG current change (%, negative = inhibition) at 10uM for S=c1[nH]c(-c2ccccc2)cs1 .
A) 66.4

Q) Data request, read-out hERG current change (%, negative = inhibition) at 10uM, for CCNC(=O)C(C)Oc1ccc(Cl)cc1Cl (centres unmarked)
A) 9.68

Q) What hERG current change (%, negative = inhibition) at 10uM value was documented for this compound, COc1cc(Cn2nnc3ccccc32)cc(Br)c1O ?
A) 3

Q) Param item = COc1ccc(O)c(CN2CCCC(N3CCc4ccccc4C3)C2)c1 (centres unmarked) ; retrieve measured hERG current change (%, negative = inhibition) at 10uM.
A) -46.6

Q) Entry under review: Cc1nn(CC(=O)NC2(C#N)CCCCC2)c(C)c1[N+](=O)[O-] . Reported hERG current change (%, negative = inhibition) at 10uM?
A) 3.09

Q) Sample O=C(CN1C(=O)c2cccc3cccc1c23)NCc1cccnc1 — what was its hERG current change (%, negative = inhibition) at 10uM?
A) 2.05

Q) Would you kindly share the measured hERG current change (%, negative = inhibition) at 10uM for COc1ccc(C(=O)CCc2ccccc2)cc1 ?
A) 9.03

Q) Look at this compound and give its reported hERG current change (%, negative = inhibition) at 10uM. O=C(CN1C(=O)CCOc2ccccc21)Nc1ccc(Cl)c(S(=O)(=O)N2CCOCC2)c1
A) -7.44

Q) Request the reported hERG current change (%, negative = inhibition) at 10uM associated with CN(CC(=O)NCc1cccnc1)S(=O)(=O)c1ccc(F)cc1
A) 21.3

Q) # get_value(readout='hERG current change (%, negative = inhibition) at 10uM', item= COc1cc2c(C(=O)Nc3ccc4c(c3)OCO4)cn(CC(C)C)c(=O)c2cc1OC )
A) -2.44

Q) What does the data say about its hERG current change (%, negative = inhibition) at 10uM? Entry: Oc1ccccc1CN1CCCC(N2CCc3ccccc3C2)C1 (centres unmarked)
A) -38.8

Q) Find the recorded hERG current change (%, negative = inhibition) at 10uM belonging to COc1ccc(C(C(=O)NC(C)(C)C)N(C(=O)CNC(=O)c2cccs2)c2ccc(NC(C)=O)cc2)cc1OC (centres unmarked) and report it.
A) 10.4

Q) # input compound: COCCN(CC(=O)NCc1ccccc1)C(=O)CCC(=O)Nc1ccccn1 ; wanted: its hERG current change (%, negative = inhibition) at 10uM
A) 4.54

Q) Quick check: hERG current change (%, negative = inhibition) at 10uM of O=C(N=C1c2ccccc2CN1c1ccccc1)c1cccc([N+](=O)[O-])c1 ?
A) -1.72

Q) Please look up its hERG current change (%, negative = inhibition) at 10uM: CCN(CC(=O)NCc1cccs1)C(=O)c1ccc(-c2ccccc2F)o1
A) -71.6

* * *

- system name: human ether-à-go-go-related gene (hERG) potassium channel (human, UniProt Q12809);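 also: peak tail current of the secondary pulse compared with the same well before compound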
- test summary: primary screen, population patch clamp on CHO cells stably expressing hERG; higher = less effect of the substance
In all, about 310,000 compounds went through this assay and about 14,000 (4.5%) showed an effect of 50% or more. Effects have a minus sign here. What follows is part of a selection rich in strong results, with near analogues and random picks from the rest.
Entry flag: yes if hERG current change (%, negative = inhibition) at 10uM reaches -40%; no if it does not.

Q) Identify whether the reported hERG current change (%, negative = inhibition) at 10uM of the following compound is -40% or greater: CN1CCN(Cc2cccc(Oc3ccccc3)c2)CC1
A) yes

Q) Form field: hERG current change (%, negative = inhibition) at 10uM at least -40%? Entry: COc1ccc(CN2CCN(C(=O)c3cccc4ccccc34)CC2)c(OC)c1OC.O=C(O)C(=O)O
A) yes

Q) Could you verify whether the entry COc1cc(/C=N/n2cnnc2)ccc1OS(=O)(=O)c1ccccc1[N+](=O)[O-] shows hERG current change (%, negative = inhibition) at 10uM of no less than -40%?
A) no

Q) Could you verify whether the entry Cc1ccc(SCCN2CCN(Cc3ccccc3)CC2)cc1.O=C(O)C(=O)O shows hERG current change (%, negative = inhibition) at 10uM of no less than -40%?
A) yes

Q) I'd appreciate it if you could say whether COc1ccc(CN2CCN(S(=O)(=O)c3ccc(F)cc3)CC2)c(OC)c1OC.O=C(O)C(=O)O has hERG current change (%, negative = inhibition) at 10uM at least equal to -40%.
A) yes

Q) # bool: hERG current change (%, negative = inhibition) at 10uM of Cc1ccc(S(=O)(=O)Oc2cccc(/C=N/n3cnnc3)c2)cc1 >= -40%
A) no

Q) Reported hERG current change (%, negative = inhibition) at 10uM reaches at least -40% for CCOc1cc(/C=N/n2cnnc2)ccc1OS(=O)(=O)c1ccc(C)cc1 ?
A) no

Q) Record COc1cccc(CN2CCN(Cc3cccc(Br)c3)CC2)c1OC.O=C(O)C(=O)O ; criterion: hERG current change (%, negative = inhibition) at 10uM no lower than -40%. Met?
A) yes

meta.source: paper PMC4336329
